experiment: Apparent volume of distribution in Sprague-Dawley rat at 50 mg/kg, iv pretreated with Escherichia coli lipopolysaccharide (Rvb=4,950 +/- 1160 ml/kg); assay type: ADME, organism-based; set-up: dose 50 mg/kg, route intravenous; details: in vivo, read-out: Vdss(app)
measurement-type: Vd (L/kg)

[[record]]
structure = "CC[C@H]1OC(=O)[C@H](C)C(=O)[C@H](C)[C@@H](O[C@@H]2O[C@H](C)C[C@H](N(C)C)[C@H]2O)[C@](C)(OC)C[C@@H](C)C(=O)[C@H](C)[C@H]2N(CCCCn3cnc(-c4cccnc4)c3)C(=O)O[C@]12C"
recorded_measurement = 3.28

